Data origin: patent US5164390A

- System: Adult mongrel dogs
- experiment notes: Cardiotonic activity: hemodynamic and inotropic responses (MAP, HR, dP/dt, contractile force) in anesthetized dogs, iv infusion
- Assay type: in vivo, mongrel dog
- test settings: Canis lupus familiaris, Table 1, 1.875 mg/kg iv, cumulative dose, read-out: CF (myocardial contractile force), % from Control
quantity: change in vivo at 1.875 mg/kg (%)
// return numeric value only (unit: %, not printed)

// query change in vivo at 1.875 mg/kg value for entry OC(COc1ncnc2nc[nH]c12)CN1CCN(C(c2ccccc2)c2ccccc2)CC1 (stereo not shown)
66

Try CC(=O)OC(CSc1ncnc2[nH]cnc12)CN1CCN(C(c2ccc(F)cc2)c2ccc(F)cc2)CC1 (stereo not shown) [Example 11, Hydrate] next.
145

Try OC(CSc1ncnc2[nH]cnc12)CN1CCN(Cc2ccc3c(c2)OCO3)CC1 (stereo not shown) [Example 6, Sesquihydrate] next.
79

Try OC(CSc1ncnc2[nH]cnc12)CN1CCN(C(c2ccc(F)cc2)c2ccc(F)cc2)CC1 (stereo not shown) [Example 1, Hemihydrate] next.
214
